System: COLO 205
Test: Growth inhibition of human COLO205 cells assessed as cell growth at 10^-7 M by sulforhodamine B assay
Format: functional
Conditions: read-out: Activity
Value kind: growth at 0.1 µM (%)
Report only the number, with the unit % understood.

Solved entries (count: 4):
Compound	Numeric value
CC(C)=CC(=O)O[C@@H]1CC(C)(C)C[C@H]2C3=CC[C@@H]4[C@@]5(C)CCC(=O)C(C)(C)[C@@H]5CC[C@@]4(C)[C@]3(C)CC[C@@]12C(=O)O	103
C/C=C(/C)C(=O)O[C@@H]1CC(C)(C)C[C@H]2C3=CC[C@@H]4[C@@]5(C)CC[C@H](O)C(C)(C)[C@@H]5CC[C@@]4(C)[C@]3(C)CC[C@@]12C(=O)O [Reduced Lantadene A]	107
CC1(C)C[C@@H](O)[C@]2(C(=O)O)CC[C@]3(C)C(=CC[C@@H]4[C@@]5(C)C/C(=C\C=C\c6ccccc6)C(=O)C(C)(C)[C@@H]5CC[C@]43C)[C@@H]2C1	100
CC(C)=CC(=O)O[C@@H]1CC(C)(C)C[C@H]2C3=CC[C@@H]4[C@@]5(C)CC[C@H](O)C(C)(C)[C@@H]5CC[C@@]4(C)[C@]3(C)CC[C@@]12C(=O)O [Reduced Lantadene B]	97

Let us move to another entry and its growth at 0.1 µM.
Task item: Give the reported growth at 0.1 µM for this compound. C/C=C(/C)C(=O)O[C@@H]1CC(C)(C)C[C@H]2C3=CC[C@@H]4[C@@]5(C)CCC(=O)C(C)(C)[C@@H]5CC[C@@]4(C)[C@]3(C)CC[C@@]12C(=O)O [LANTADENE A]
Reply: 110

The origin of these recorded values is ChEMBL document CHEMBL2413072.
